Catalogue of compounds with associated TGI
# Test system: SF-268 CNS
# assay_protocol: NCI tumour cell line growth inhibition, 48 h
Supply the numeric figure in µM, leaving out any unit text.

# annotated cases, reported TGI shown
Cc1cc(C)c2nc(Nc3nc(C)c(C)c(=O)[nH]3)nc(C)c2c1: 13.8
COc1ccc(/C(C#N)=C/c2nc3c(N4CCOCC4)nc(Cl)nc3n2C)cc1OC: 2.23

// query Please give the documented TGI of `Oc1cccc(-c2cc(=S)ss2)c1`
// result 32.6

====

# Test system: NCI-H23 lung
# assay_protocol: NCI tumour cell line growth inhibition, 48 h
property_measured: TGI

// query Please give the documented TGI of COC12OC3(C4OC41)C(C(=O)O[C@H]3CO[Si](C)(C)C(C)(C)C)C2S(=O)(=O)c1ccccc1 (some centres undefined)
// result > 100 µM
